- tested.on: Peroxisome proliferator-activated receptor alpha (Homo sapiens)
- Sequence (Q07869 whole entry): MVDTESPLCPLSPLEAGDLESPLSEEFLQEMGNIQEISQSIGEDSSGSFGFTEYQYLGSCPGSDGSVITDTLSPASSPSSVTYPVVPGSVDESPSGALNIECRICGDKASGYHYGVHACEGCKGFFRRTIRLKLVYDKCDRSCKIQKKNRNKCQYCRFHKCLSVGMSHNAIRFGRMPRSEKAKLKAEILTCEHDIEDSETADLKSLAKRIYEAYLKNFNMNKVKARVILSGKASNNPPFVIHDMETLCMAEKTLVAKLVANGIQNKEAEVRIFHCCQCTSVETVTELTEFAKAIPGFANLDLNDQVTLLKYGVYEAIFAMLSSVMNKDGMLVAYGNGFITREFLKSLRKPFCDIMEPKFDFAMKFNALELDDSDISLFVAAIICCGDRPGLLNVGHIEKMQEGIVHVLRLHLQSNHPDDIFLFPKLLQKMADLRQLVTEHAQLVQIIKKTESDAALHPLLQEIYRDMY
- assay.text: Agonist activity at PPAR alpha in human HEK cells by transactivation assay
parameter: EC50 (µM)

[I] Cc1oc(-c2ccccc2)nc1CCOc1ccc(CN(CC(=O)O)C(=O)Oc2ccc(O)cc2)cc1
[II] COc1ccc(OC(=O)N(CC(=O)O)Cc2ccc(OCCc3nc(-c4ccccc4)oc3CO)cc2)cc1
[III] COc1ccc(OC(=O)N(CC(=O)O)Cc2ccc(OCCc3nc(-c4ccc(O)cc4)oc3C)cc2)cc1
[IV] O=C(O)CN(Cc1ccc(OCCc2nc(-c3ccccc3)oc2CO)cc1)C(=O)Oc1ccc(O)cc1
Query string: Arrange the 4 compounds by rising EC50, starting with the smallest. List the labels according to the requested ordering.
Result string: III, II, I, IV
(III: 0.26 µM, II: 1.94 µM, I: 6.89 µM, IV: 18.1 µM)
